# reported LD50 at 168 h; entries follow
assay: Acute toxcity test; details: in vivo; Intravenous administration; male ICR-mouse; after 1 week

Some entries whose results are on file:
CO/N=C(\C(=O)N[C@@H]1C(=O)N2C(C(=O)[O-])=C(C[n+]3cn(N)cn3)CS[C@H]12)c1csc(N)n1    > 4000 mg/kg
CC(C)(O/N=C(\C(=O)N[C@@H]1C(=O)N2C(C(=O)[O-])=C(C[n+]3cn(N)cn3)CS[C@H]12)c1csc(N)n1)C(=O)O    > 4000 mg/kg

Moving on to another molecule below.
Requested field: LD50 at 168 h. Item: CON=C(C(=O)NC1C(=O)N2C(C(=O)[O-])=C(C[n+]3nn(N)c4ccccc43)CSC12)c1csc(N)n1 (stereo not drawn)
> 4000 mg/kg

###

Tested on: Salmonella typhimurium
Assay: Antibacterial activity, MIC by Agar dilution method, standard test strain 16
Format: cell-based
Details: Salmonella enterica, 10^7 CFU/ml, 37° C., 18 hours
Protocol: The antibacterial activity was determined by an Agar dilution method as described below. That is, the two-fold serial dilutions of the antibacterial compounds (1000 μg compound/ml) were prepared and dispersed in Muller Hinton Agar in a petri dish to a concentration of 100~0.002 μg/ml. The culture broths of standard test strains were inoculated on the medium to a concentration 10^7 CFU/ml, and incubated at 37° C. for 18 hours. […]
RECORDED METRIC: MIC (µg/mL)
# value in µg/mL; strip the unit string

Some entries whose results are on file:
CO/N=C(\C(=O)N[C@@H]1C(=O)N2C(C(=O)[O-])=C(CN3CC[N+](C)(N)CC3)CS[C@H]12)c1csc(N)n1 [Example 11]    0.391
CO/N=C(\C(=O)N[C@@H]1C(=O)N2C(C(=O)[O-])=C(C[n+]3nn(N)c4ccccc43)CS[C@H]12)c1nsc(N)n1 [Example 85]    0.195
CO/N=C(\C(=O)N[C@@H]1C(=O)N2C(C(=O)O)=C(COC(C)=O)CS[C@H]12)c1csc(N)n1 [Cefotaxime, reference compound]    0.025
CO/N=C(\C(=O)N[C@@H]1C(=O)N2C(C(=O)[O-])=C(C[n+]3cn(N)c4ccccc43)CS[C@H]12)c1csc(N)n1 [Example 19]    0.195
CO/N=C(\C(=O)N[C@@H]1C(=O)N2C(C(=O)[O-])=C(C[N+]3(N)CCc4ccccc4C3)CS[C@H]12)c1csc(N)n1 (stereo partly drawn) [Example 5]    0.781

Moving on to another compound below.
Requested field: MIC. Item: CC(C)(O/N=C(\C(=O)N[C@@H]1C(=O)N2C(C(=O)[O-])=C(C[n+]3cn(N)cn3)CS[C@H]12)c1csc(N)n1)C(=O)O [Example 36]
6.25

###

target: β-lactamase from Citrobacter freundii (Citrobacter freundii); construct: directly isolated from Enterobacter cloacae P99, E. coli TEM and Citrobacter freundii; endogenous in cells; assay: Stability against β-lactamase, relative hydrolysis; assay type: biochemical; conditions: Citrobacter freundii enzyme; 100 μM; relative(percentage), Cephaloridine taken as 100; OD at 260 nm
Sequence (P05193 21-381): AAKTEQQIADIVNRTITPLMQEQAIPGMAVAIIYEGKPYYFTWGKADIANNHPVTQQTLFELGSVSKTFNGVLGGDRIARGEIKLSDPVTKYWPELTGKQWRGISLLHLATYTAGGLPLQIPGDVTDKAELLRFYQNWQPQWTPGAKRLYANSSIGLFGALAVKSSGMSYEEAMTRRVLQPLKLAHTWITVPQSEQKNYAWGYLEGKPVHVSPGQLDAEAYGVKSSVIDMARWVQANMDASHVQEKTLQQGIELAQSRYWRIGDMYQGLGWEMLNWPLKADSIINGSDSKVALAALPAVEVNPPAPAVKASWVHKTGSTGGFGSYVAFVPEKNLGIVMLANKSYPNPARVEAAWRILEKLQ
Threshold rule: Relative hydrolysis by β-lactamase greater than or equal to 0.6 is 1 (yes); below that, 0 (no).

Below are worked cases with known answers.
O=C(Cc1cccs1)N[C@@H]1C(=O)N2C(C(=O)[O-])=C(C[n+]3ccccc3)CS[C@H]12    1 (yes)
CON=C(C(=O)NC1C(=O)N2C(C(=O)[O-])=C(C[n+]3nn(N)c4ccccc43)CSC12)c1csc(N)n1 (centres unmarked)    0 (no)
CC1=C(C(=O)O)N2C(=O)[C@@H](NC(=O)[C@H](N)C3=CCC=CC3)[C@H]2SC1    1 (yes)

Kindly review the next compound as well.
Can CCN1CCN(C(=O)N[C@@H](C(=O)N[C@@H]2C(=O)N3C(C(=O)O)=C(CSc4nnnn4C)CS[C@H]23)c2ccc(O)cc2)C(=O)C1=O be said to have Relative hydrolysis by β-lactamase at or above 0.6?
1 (yes)

###

molecular target: β-lactamase from E. coli TEM (Escherichia coli); construct: directly isolated from Enterobacter cloacae P99, E. coli TEM and Citrobacter freundii; endogenous in cells; host or cells: E. coli TEM (plasmid-carried enzyme of the strain); assay: Stability against β-lactamase, relative hydrolysis; type: biochemical; conditions: E. coli TEM enzyme; 100 μM; relative(percentage), Cephaloridine taken as 100; OD at 260 nm
Sequence (P62593 24-286 limits assumed): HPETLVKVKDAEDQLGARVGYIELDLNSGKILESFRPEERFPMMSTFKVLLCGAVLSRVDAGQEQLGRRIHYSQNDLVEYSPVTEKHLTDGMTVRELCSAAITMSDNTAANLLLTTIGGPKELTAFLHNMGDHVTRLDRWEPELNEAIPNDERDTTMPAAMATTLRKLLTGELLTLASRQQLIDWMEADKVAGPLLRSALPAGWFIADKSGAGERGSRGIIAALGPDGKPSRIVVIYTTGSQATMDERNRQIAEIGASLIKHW
RECORDED METRIC: Relative hydrolysis by β-lactamase

Some entries whose results are on file:
O=C(Cc1cccs1)N[C@@H]1C(=O)N2C(C(=O)[O-])=C(C[n+]3ccccc3)CS[C@H]12    100
CCN1CCN(C(=O)N[C@@H](C(=O)N[C@@H]2C(=O)N3C(C(=O)O)=C(CSc4nnnn4C)CS[C@H]23)c2ccc(O)cc2)C(=O)C1=O    38.6

Requested field: Relative hydrolysis by β-lactamase. Item: CC1=C(C(=O)O)N2C(=O)[C@@H](NC(=O)[C@H](N)C3=CCC=CC3)[C@H]2SC1
0.8

Please answer likewise for CON=C(C(=O)NC1C(=O)N2C(C(=O)[O-])=C(C[n+]3nn(N)c4ccccc43)CSC12)c1csc(N)n1 (centres unmarked)
0.0

Please answer likewise for CO/N=C(\C(=O)N[C@@H]1C(=O)N2C(C(=O)O)=C(COC(C)=O)CS[C@H]12)c1csc(N)n1 [Cefotaxime, reference compound]
0.6

###

# reported MIC; entries follow
test system: Klebsiella aerogenes 1522E; experiment: Antibacterial activity, MIC by Agar dilution method, standard test strain 18; assay type: cell-based; settings: Klebsiella aerogenes 1522E; 10^7 CFU/ml, 37° C., 18 hours; read-out: MIC
# value in mg/L; strip the unit string

Some entries whose results are on file:
CC(C)(O/N=C(\C(=O)N[C@@H]1C(=O)N2C(C(=O)[O-])=C(C[n+]3cn(N)cn3)CS[C@H]12)c1csc(N)n1)C(=O)O [Example 36]    0.781
CO/N=C(\C(=O)N[C@@H]1C(=O)N2C(C(=O)[O-])=C(C[N+]3(N)CCc4ccccc4C3)CS[C@H]12)c1csc(N)n1 (some centres unmarked) [Example 5]    0.013
CO/N=C(\C(=O)N[C@@H]1C(=O)N2C(C(=O)O)=C(COC(C)=O)CS[C@H]12)c1csc(N)n1 [Cefotaxime, reference compound]    0.013

Requested field: MIC. Item: CO/N=C(\C(=O)N[C@@H]1C(=O)N2C(C(=O)[O-])=C(C[N+]3(N)CCCC3)CS[C@H]12)c1csc(N)n1 [Example 1]
0.195

Please answer likewise for CO/N=C(\C(=O)N[C@@H]1C(=O)N2C(C(=O)[O-])=C(CN3CC[N+](C)(N)CC3)CS[C@H]12)c1csc(N)n1 [Example 11]
0.391

Please answer likewise for CO/N=C(\C(=O)N[C@@H]1C(=O)N2C(C(=O)[O-])=C(C[n+]3cn(N)c4ccccc43)CS[C@H]12)c1csc(N)n1 [Example 19]
0.195

Please answer likewise for CO/N=C(\C(=O)N[C@@H]1C(=O)N2C(C(=O)[O-])=C(C[n+]3cn(N)cn3)CS[C@H]12)c1csc(N)n1 [Example 12]
0.049

Please answer likewise for CO/N=C(\C(=O)N[C@@H]1C(=O)N2C(C(=O)[O-])=C(C[n+]3nn(N)c4ccccc43)CS[C@H]12)c1nsc(N)n1 [Example 85]
0.049

###

# reported Relative hydrolysis by β-lactamase; entries follow
target: β-lactamase from Enterobacter cloacae P99 (Enterobacter cloacae, UniProt P05364); construct: directly isolated from Enterobacter cloacae P99, E. coli TEM and Citrobacter freundii; endogenous in cells; host or cells: Enterobacter cloacae P99; assay: Stability against β-lactamase, relative hydrolysis; assay type: biochemical; details: Enterobacter cloacae P99 enzyme; 100 μM; relative(percentage), Cephaloridine taken as 100; OD at 260 nm
Sequence (P05364 21-381): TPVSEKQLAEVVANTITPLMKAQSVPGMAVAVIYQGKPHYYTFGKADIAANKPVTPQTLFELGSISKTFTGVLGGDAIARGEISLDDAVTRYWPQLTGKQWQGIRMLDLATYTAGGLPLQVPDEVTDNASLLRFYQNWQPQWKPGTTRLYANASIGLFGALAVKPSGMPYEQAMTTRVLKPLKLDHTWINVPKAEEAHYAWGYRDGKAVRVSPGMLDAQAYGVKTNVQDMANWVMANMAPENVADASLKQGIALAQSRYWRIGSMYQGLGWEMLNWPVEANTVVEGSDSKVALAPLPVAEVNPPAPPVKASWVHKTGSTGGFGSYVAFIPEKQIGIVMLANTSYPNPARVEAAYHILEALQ

CON=C(C(=O)NC1C(=O)N2C(C(=O)[O-])=C(C[n+]3nn(N)c4ccccc43)CSC12)c1csc(N)n1 (stereo not shown)    0.0
CO/N=C(\C(=O)N[C@@H]1C(=O)N2C(C(=O)O)=C(COC(C)=O)CS[C@H]12)c1csc(N)n1 [Cefotaxime, reference compound]    0.0
CC1=C(C(=O)O)N2C(=O)[C@@H](NC(=O)[C@H](N)C3=CCC=CC3)[C@H]2SC1    14.9

Moving on to another molecule below.
Requested field: Relative hydrolysis by β-lactamase. Item: O=C(Cc1cccs1)N[C@@H]1C(=O)N2C(C(=O)[O-])=C(C[n+]3ccccc3)CS[C@H]12
100

###

tested on: Staphyloccus aureus 285; experiment: Antibacterial activity, MIC by Agar dilution method, standard test strain 5; format: cell-based; details: 10^7 CFU/ml, 37° C., 18 hours
Flag rule - MIC less than 2 µg/mL flags Criterion met; the remaining entries get Criterion not met.

CO/N=C(\C(=O)N[C@@H]1C(=O)N2C(C(=O)[O-])=C(C[N+]3(N)CCCC3)CS[C@H]12)c1csc(N)n1    Criterion not met

# strict comparison: is reported MIC < 2 µg/mL? input = CO/N=C(\C(=O)N[C@@H]1C(=O)N2C(C(=O)[O-])=C(C[n+]3nn(N)c4ccccc43)CS[C@H]12)c1nsc(N)n1
Criterion met

Please answer likewise for CO/N=C(\C(=O)N[C@@H]1C(=O)N2C(C(=O)[O-])=C(CN3CC[N+](C)(N)CC3)CS[C@H]12)c1csc(N)n1
Criterion not met
